Test system: biotinyl-Leu-oxazolone
test: self-aminoacylation, catalytic enhancement (BLO) (fold over background); higher = more active; k-Seq, kA / k0A0; sequences stand for … in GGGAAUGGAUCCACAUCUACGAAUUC…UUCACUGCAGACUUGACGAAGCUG
Variants at the floor of the assay were thinned out.
measure name: self-aminoacylation
Please state the value as a number alone, without comment.

The examples below pair each entry with its known result.
{"chain": "AUUACCCUGGUCGGCGAGUGA [Fam2.1 aminoacylation ribozyme variant]", "target system": "biotinyl-Leu-oxazolone", "self-aminoacylation": 9.02}
{"chain": "AUUCACCUACGUCCUCGGGUG [Fam2.2 aminoacylation ribozyme variant]", "target system": "biotinyl-Leu-oxazolone", "self-aminoacylation": 7.17}

// query What self-aminoacylation appears in the records for this sequence with biotinyl-Leu-oxazolone? CCACACUUCAACCAAUCUGUC [Fam1B.1 aminoacylation ribozyme variant]
// result 0.377

// query What self-aminoacylation appears in the records for this sequence with biotinyl-Leu-oxazolone? CUAGUACAAACAAUCGGUCUG [Fam1A.1 aminoacylation ribozyme variant]
// result 0.802

// query What self-aminoacylation appears in the records for this sequence with biotinyl-Leu-oxazolone? AUGGCCCUGGUCAUCGAGUGA [Fam2.1 aminoacylation ribozyme variant]
// result 84.6
